Listed below: Flk Kinase % Inhibition (P.110) values for each entry.
- Tested on: FLK-1 receptor
- assay info: FLK-1 Assay (cellular/catalytic ELISA, VEGF-stimulated phosphotyrosine)
- Format: cell-based
- Parameters: concentration or dose not given beside the values

smiles data: Cc1c(Br)ccc2c1C(=Cc1ccc(-c3ccccc3)cc1)C(=O)N2
target entity: FLK-1 receptor
units of measure: %
Flk Kinase % Inhibition (P.110): 18.6
//
smiles data: O=C1Nc2c(Br)cc(Br)cc2C1=Cc1cc(Cl)cc(Cl)c1O
target entity: FLK-1 receptor
units of measure: %
Flk Kinase % Inhibition (P.110): 10.1
//
smiles data: O=C1Nc2c(Br)cc(Br)cc2C1=Cc1ccc(O)c(Br)c1
target entity: FLK-1 receptor
units of measure: %
Flk Kinase % Inhibition (P.110): −7.9
//
smiles data: O=C1Nc2ccc(S(=O)(=O)Nc3ccc(C(F)(F)F)cc3)cc2C1=Cc1cc(C(F)(F)F)cc(C(F)(F)F)c1
target entity: FLK-1 receptor
units of measure: %
Flk Kinase % Inhibition (P.110): 23.8

----------
- target entity: EGFR (Homo sapiens)
- Construct: endogenous in cells; host or cells: A431 cells (lysate, captured with SUMO1 anti-EGFR antibody)
- Sequence (P00533 25-1210): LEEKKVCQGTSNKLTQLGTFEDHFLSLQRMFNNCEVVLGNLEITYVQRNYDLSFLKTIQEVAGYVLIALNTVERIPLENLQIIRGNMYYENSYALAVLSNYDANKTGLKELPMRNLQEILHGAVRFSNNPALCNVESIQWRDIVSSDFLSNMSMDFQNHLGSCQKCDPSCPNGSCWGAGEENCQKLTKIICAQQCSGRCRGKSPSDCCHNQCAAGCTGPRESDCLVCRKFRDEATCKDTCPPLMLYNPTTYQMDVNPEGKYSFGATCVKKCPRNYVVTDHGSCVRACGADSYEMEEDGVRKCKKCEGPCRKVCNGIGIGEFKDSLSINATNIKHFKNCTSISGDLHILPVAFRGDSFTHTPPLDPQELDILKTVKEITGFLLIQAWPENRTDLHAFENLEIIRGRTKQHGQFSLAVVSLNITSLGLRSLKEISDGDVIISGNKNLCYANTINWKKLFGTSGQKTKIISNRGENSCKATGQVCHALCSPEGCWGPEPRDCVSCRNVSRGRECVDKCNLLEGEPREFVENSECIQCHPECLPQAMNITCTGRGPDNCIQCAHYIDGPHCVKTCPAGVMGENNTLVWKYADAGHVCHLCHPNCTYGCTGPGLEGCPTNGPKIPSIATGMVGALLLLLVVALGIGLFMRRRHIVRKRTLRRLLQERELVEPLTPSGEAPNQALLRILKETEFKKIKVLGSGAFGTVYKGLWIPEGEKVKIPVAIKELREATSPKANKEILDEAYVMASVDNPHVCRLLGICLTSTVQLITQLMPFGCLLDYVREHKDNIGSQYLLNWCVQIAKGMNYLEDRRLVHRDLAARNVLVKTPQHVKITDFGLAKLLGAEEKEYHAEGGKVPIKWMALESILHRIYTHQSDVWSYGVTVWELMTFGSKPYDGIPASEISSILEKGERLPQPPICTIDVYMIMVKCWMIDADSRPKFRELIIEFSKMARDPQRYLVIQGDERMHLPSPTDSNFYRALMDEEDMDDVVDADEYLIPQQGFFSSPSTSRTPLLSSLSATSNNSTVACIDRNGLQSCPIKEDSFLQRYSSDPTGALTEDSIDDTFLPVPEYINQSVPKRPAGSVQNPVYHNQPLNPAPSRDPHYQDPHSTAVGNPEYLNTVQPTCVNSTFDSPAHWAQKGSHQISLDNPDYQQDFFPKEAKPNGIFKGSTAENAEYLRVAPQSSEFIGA
- assay info: Biochemical EGFR Assay
- Set-up: concentration or dose not given beside the values
Listed below: Biochem EGFR % Inhibition (P.167) values for each entry.

smiles data: COc1ccc2ccccc2c1C=C1C(=O)Nc2c(Br)cc(Br)c(C)c21
target entity: EGFR (Homo sapiens)
Biochem EGFR % Inhibition (P.167) [%]: −10.7

smiles data: Cc1c(Br)cc(Br)c2c1C(=Cc1cc(Cl)cc(Br)c1O)C(=O)N2
target entity: EGFR (Homo sapiens)
Biochem EGFR % Inhibition (P.167) [%]: 19.2

smiles data: Cc1c(Br)cc(Br)c2c1C(=Cc1ccncc1)C(=O)N2
target entity: EGFR (Homo sapiens)
Biochem EGFR % Inhibition (P.167) [%]: 8.0

smiles data: O=C1Nc2ccc(S(=O)(=O)N3CCOCC3)cc2C1=Cc1ccc(-c2ccccc2)cc1
target entity: EGFR (Homo sapiens)
Biochem EGFR % Inhibition (P.167) [%]: 14.8

smiles data: Cc1c(Br)ccc2c1C(=Cc1ccc(C(C)(C)C)cc1)C(=O)N2
target entity: EGFR (Homo sapiens)
Biochem EGFR % Inhibition (P.167) [%]: 24.4

smiles data: O=C1Nc2ccc(S(=O)(=O)Nc3ccc(C(F)(F)F)cc3)cc2C1=Cc1ccccc1Cl
target entity: EGFR (Homo sapiens)
Biochem EGFR % Inhibition (P.167) [%]: −74.1

smiles data: Cc1cn(C)cc1C=C1C(=O)Nc2c(Br)cc(Br)c(C)c21
target entity: EGFR (Homo sapiens)
Biochem EGFR % Inhibition (P.167) [%]: −9.2

smiles data: COC(=O)Cc1c(Cl)[nH]c(C=C2C(=O)Nc3c(Br)cc(Br)c(C)c32)c1C(=O)OC
target entity: EGFR (Homo sapiens)
Biochem EGFR % Inhibition (P.167) [%]: −28.4

smiles data: COc1cccc(C=C2C(=O)Nc3ccc(I)cc32)c1
target entity: EGFR (Homo sapiens)
Biochem EGFR % Inhibition (P.167) [%]: 15.6

----------
- target entity: Met receptor (EGFR/Met chimeric cells, EMR) (Homo sapiens, UniProt P08581)
- Construct: expressed in transfected cells; the other entry of the earlier key: EGFR (P00533, Epidermal growth factor receptor)
- Sequence (P08581 with tags, fused parts or gaps): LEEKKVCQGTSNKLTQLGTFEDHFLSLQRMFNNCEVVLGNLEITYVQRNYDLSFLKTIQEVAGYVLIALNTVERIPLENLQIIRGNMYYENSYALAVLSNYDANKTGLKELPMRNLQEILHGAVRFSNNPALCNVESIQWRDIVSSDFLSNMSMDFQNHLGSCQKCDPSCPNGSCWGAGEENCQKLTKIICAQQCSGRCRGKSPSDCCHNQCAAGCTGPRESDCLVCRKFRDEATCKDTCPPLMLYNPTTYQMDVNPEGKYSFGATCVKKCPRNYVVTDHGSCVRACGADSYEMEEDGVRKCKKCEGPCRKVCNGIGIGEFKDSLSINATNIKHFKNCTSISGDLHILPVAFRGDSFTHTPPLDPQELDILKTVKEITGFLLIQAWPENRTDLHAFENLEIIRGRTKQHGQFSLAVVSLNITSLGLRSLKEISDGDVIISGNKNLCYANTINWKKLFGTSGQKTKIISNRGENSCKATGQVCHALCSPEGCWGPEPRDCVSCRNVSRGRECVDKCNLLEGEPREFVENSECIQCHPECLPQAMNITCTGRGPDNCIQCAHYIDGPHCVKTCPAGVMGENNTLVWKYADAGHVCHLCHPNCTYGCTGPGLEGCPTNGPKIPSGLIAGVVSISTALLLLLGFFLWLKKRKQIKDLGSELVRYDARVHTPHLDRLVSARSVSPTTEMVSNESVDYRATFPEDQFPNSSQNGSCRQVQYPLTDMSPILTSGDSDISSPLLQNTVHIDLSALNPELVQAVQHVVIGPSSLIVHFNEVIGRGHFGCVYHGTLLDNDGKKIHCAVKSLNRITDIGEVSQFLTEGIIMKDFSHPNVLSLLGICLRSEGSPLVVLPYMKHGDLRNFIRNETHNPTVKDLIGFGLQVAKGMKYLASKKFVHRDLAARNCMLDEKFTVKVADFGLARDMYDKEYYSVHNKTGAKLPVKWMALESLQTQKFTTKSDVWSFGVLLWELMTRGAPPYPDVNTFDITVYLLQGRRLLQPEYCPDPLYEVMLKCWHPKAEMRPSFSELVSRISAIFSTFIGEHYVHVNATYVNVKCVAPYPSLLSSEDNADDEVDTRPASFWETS
- assay info: Met Autophosphorylation Assay
- Format: biochemical
- assay conditions: protocol P.130
Friendly reminder: Met Kinase % Inhibition (P.130) below 60% is met, at or above is not met.

compound: Cc1c(Br)cc(Br)c2c1C(=Cc1ccc(Cl)cc1)C(=O)N2 [10736/H02]
group label: not met
//
compound: COc1ccc(C=C2C(=O)Nc3ccc(S(=O)(=O)Nc4ccc(C(F)(F)F)cc4)cc32)cc1C [10739/E02]
group label: met
//
compound: CC(C)(C)c1ccc(Oc2cccc(C=C3C(=O)Nc4ccc(S(=O)(=O)N5CCOCC5)cc43)c2)cc1 [10737/F10]
group label: not met
//
compound: CNS(=O)(=O)c1ccc2c(c1)C(=Cc1cc(F)ccc1F)C(=O)N2 [10737/D04]
group label: met
//
compound: CCCCOc1ccc(C=C2C(=O)Nc3ccc(CCCl)cc32)cc1 [10740/G11]
group label: met
//
compound: Cc1c(Br)ccc2c1C(=Cc1ccnc3ccccc13)C(=O)N2 [10740/C03]
group label: not met
//
compound: O=C1Nc2ccc(S(=O)(=O)Nc3ccc(C(F)(F)F)cc3)cc2C1=Cc1cc(O)cc(O)c1 [10738/E07]
group label: not met
//
compound: O=C1Nc2ccc(CCCl)cc2C1=Cc1cccc(F)c1F [10737/G05]
group label: met
//
compound: O=C1Nc2ccc(I)cc2C1=Cc1cc(Br)cs1 [10740/B10]
group label: met

----------
- target entity: EGFR (Homo sapiens)
- Construct: endogenous in cells; host or cells: A431 cells (lysate, captured with SUMO1 anti-EGFR antibody)
- assay info: Biochemical EGFR Assay
- Set-up: concentration or dose not given beside the values
Listed below: Biochem EGFR % Inhibition (P.167) values for each entry.
quantity kind: Biochem EGFR % Inhibition (P.167) (%)

smiles data: Cc1c(Br)cc(Br)c2c1C(=Cc1cc(Cl)ccc1O)C(=O)N2
experimental value: 5.9
--
smiles data: COc1ccc2[nH]cc(C=C3C(=O)Nc4c(Br)cc(Br)c(C)c43)c2c1
experimental value: −2.7
--
smiles data: Cc1c(Br)cc(Br)c2c1C(=Cc1ccc([N+](=O)[O-])c(O)c1)C(=O)N2
experimental value: 14.0
--
smiles data: CCN(CC)c1ccc(C=C2C(=O)Nc3ccc(Br)c(C)c32)c(O)c1
experimental value: 9.3
--
smiles data: COc1cc(C=C2C(=O)Nc3c(Br)cc(Br)c(C)c32)cc(OC)c1OC
experimental value: −29.5
--
smiles data: Cc1ccc(C=C2C(=O)Nc3c(Br)cc(Br)cc32)cc1
experimental value: 80.1
--
smiles data: Cc1cccc(C=C2C(=O)Nc3ccc(S(=O)(=O)N4CCOCC4)cc32)c1
experimental value: −21.7
--
smiles data: O=C1Nc2ccc(S(=O)(=O)N3CCOCC3)cc2C1=Cc1ccc(Cl)cc1
experimental value: −4.5
--
smiles data: O=C1Nc2ccc(S(=O)(=O)Nc3ccc(C(F)(F)F)cc3)cc2C1=Cc1cccc(C(F)(F)F)c1
experimental value: 30.6

----------
Listed below: Met Kinase % Inhibition (P.130) values for each entry.
- target entity: Met receptor (EGFR/Met chimeric cells, EMR) (Homo sapiens)
- Construct: expressed in transfected cells; the other entry of the earlier key: EGFR (P00533, Epidermal growth factor receptor)
- assay info: Met Autophosphorylation Assay
- Type: biochemical
- assay conditions: protocol P.130
quantity kind: Met Kinase % Inhibition (P.130) (%)

compound: O=C1Nc2c(Br)cc(Br)cc2C1=Cc1cc(O)ccc1[N+](=O)[O-] [10738/A05]
target entity: Met receptor (EGFR/Met chimeric cells, EMR) (Homo sapiens)
units of measure: %
experimental value: 33.1
--
compound: CCOc1ccc(C=C2C(=O)Nc3ccc(CCCl)cc32)cc1 [10737/G02]
target entity: Met receptor (EGFR/Met chimeric cells, EMR) (Homo sapiens)
units of measure: %
experimental value: 32.2
--
compound: Cc1c(Br)cc(Br)c2c1C(=Cc1ccc(C(C)C)cc1)C(=O)N2 [10738/H10]
target entity: Met receptor (EGFR/Met chimeric cells, EMR) (Homo sapiens)
units of measure: %
experimental value: 27.7
--
compound: Cc1c(Br)cc(Br)c2c1C(=Cc1ccc(O)cc1Cl)C(=O)N2 [10739/H06]
target entity: Met receptor (EGFR/Met chimeric cells, EMR) (Homo sapiens)
units of measure: %
experimental value: 42.2
--
compound: Cc1ccc(Oc2cccc(C=C3C(=O)Nc4ccc(CCCl)cc43)c2)cc1 [10738/G02]
target entity: Met receptor (EGFR/Met chimeric cells, EMR) (Homo sapiens)
units of measure: %
experimental value: 16.9
--
compound: Cc1c(Br)ccc2c1C(=Cc1ccc3ccccc3n1)C(=O)N2 [10740/C06]
target entity: Met receptor (EGFR/Met chimeric cells, EMR) (Homo sapiens)
units of measure: %
experimental value: 49.3
--
compound: COC1CCCN1C=C1C(=O)Nc2ccc(S(=O)(=O)Nc3ccc(C(F)(F)F)cc3)cc21 (stereo not drawn) [10740/E04]
target entity: Met receptor (EGFR/Met chimeric cells, EMR) (Homo sapiens)
units of measure: %
experimental value: 41.8
--
compound: CNS(=O)(=O)c1ccc2c(c1)C(=Cc1ccc(O)cc1Cl)C(=O)N2 [10739/D06]
target entity: Met receptor (EGFR/Met chimeric cells, EMR) (Homo sapiens)
units of measure: %
experimental value: 59.2
--
compound: Cn1cc(C=C2C(=O)Nc3ccc(I)cc32)c2ccccc21 [10740/B07]
target entity: Met receptor (EGFR/Met chimeric cells, EMR) (Homo sapiens)
units of measure: %
experimental value: 73.7

src = patent US20020026053A1
